Target Desc: T1, monkey GPC3-His protein (monkey)
T1 construct: Bought recombinant protein; also called monkey GPC3 protein
Assay Procedure: ELISA, monkey GPC3-His coated;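 further: Plate-coated antigen at 1 µg/mL, antibody binding 2 h at 37 °C, detected with HRP-labeled secondary antibody and TMB, absorbance at 450 nm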
Property: OD450 at 0.001 nM; scope: individual binders
Just the number please, in OD450, no unit attached.

Check out these entries, answers already filled in.
[
  {
    "Binder": "F3.38.7 (antibody, human IgG1, kappa, V domains shown, Human-murine chimeric antibody) VH: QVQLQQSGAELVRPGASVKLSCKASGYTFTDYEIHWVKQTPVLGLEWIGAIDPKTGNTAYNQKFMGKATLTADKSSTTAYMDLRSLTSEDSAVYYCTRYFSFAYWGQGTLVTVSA VL: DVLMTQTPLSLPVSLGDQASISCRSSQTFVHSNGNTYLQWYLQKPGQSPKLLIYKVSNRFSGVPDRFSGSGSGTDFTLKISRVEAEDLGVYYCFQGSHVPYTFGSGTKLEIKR",
    "Measure Unit": "OD450",
    "Result": 0.1
  },
  {
    "Binder": "F1.21.8 (antibody, human IgG1, kappa, V domains shown, Human-murine chimeric antibody) VH: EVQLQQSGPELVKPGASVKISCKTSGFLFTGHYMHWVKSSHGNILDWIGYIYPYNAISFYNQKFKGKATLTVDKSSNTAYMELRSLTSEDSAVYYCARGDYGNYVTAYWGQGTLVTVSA VL: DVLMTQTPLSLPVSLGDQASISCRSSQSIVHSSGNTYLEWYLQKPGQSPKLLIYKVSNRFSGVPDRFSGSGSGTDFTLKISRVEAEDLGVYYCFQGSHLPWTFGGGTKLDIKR",
    "Measure Unit": "OD450",
    "Result": 0.06
  },
  {
    "Binder": "F1.145.22 (antibody, human IgG1, kappa, V domains shown, Human-murine chimeric antibody) VH: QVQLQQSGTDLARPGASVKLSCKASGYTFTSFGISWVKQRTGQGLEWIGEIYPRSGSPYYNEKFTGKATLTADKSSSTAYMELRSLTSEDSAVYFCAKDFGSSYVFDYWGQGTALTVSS VL: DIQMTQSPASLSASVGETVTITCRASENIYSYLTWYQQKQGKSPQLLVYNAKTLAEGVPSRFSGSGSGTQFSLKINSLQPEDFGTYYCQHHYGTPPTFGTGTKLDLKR",
    "Measure Unit": "OD450",
    "Result": 0.07
  }
]

With those in mind, consider the next binder.
For F4.21.16 (antibody, human IgG1, kappa, V domains shown, Human-murine chimeric antibody) VH: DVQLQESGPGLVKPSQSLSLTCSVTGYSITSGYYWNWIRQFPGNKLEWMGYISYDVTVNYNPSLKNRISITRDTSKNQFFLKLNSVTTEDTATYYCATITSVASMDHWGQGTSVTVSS VL: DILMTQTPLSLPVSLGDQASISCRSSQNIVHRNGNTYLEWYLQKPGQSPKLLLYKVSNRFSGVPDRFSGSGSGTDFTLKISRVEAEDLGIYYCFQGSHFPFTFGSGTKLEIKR , what is its reported OD450 at 0.001 nM?
0.06

Reference source: patent US20260116991A1
